target: human GPR40 (Homo sapiens, UniProt O14842, R211H); assay: Measurement of GPR40 agonist action (FLIPR, intracellular calcium); details: CHO cell strain expressing human GPR40; changes in fluorescence intensity after 1 minute of the measurement
Sequence (O14842 whole entry R211H): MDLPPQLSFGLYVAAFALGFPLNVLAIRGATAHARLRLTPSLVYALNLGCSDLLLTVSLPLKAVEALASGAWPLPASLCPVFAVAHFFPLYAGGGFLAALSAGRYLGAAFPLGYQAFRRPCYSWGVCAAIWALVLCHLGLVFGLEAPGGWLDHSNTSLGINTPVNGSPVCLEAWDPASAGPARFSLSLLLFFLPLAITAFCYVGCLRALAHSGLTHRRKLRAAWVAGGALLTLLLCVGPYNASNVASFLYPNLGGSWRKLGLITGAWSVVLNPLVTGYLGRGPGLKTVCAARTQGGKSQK
Task for the reader: assign each of the following compounds its reported log10(EC50).
Scale: decimal log of EC50, EC50 in nM.

Take a look at these entries with their results.
Requested field: log10(EC50). Item: Cc1cc(OCC[C@H](C)O)ccc1-c1cccc(COc2ccc(Cn3oc(=O)[nH]c3=O)cc2)c1C
2.82

Endpoint output: log10(EC50) of COc1cc(C)c(-c2cccc(COc3ccc(Cn4oc(=O)[nH]c4=O)cc3)c2)c(C)c1 . Value?
2.62

Item under review: Cc1cc(OCCC(C)(C)O)cc(C)c1-c1cccc(COc2ccc(Cn3oc(=O)[nH]c3=O)cc2)c1C . Reported log10(EC50)?
2.34

Requested field: log10(EC50). Item: Cc1cc(OCC[C@H](C)O)cc(C)c1-c1cccc(COc2ccc(Cn3oc(=O)[nH]c3=O)cc2)c1C
2.72

Sample Cc1cc(OCCO)ccc1-c1cccc(COc2ccc(Cn3oc(=O)[nH]c3=O)cc2)c1 — what was its log10(EC50)?
2.59

Go through the items and report each one's log10(EC50).
1. CC(=O)NCCCOc1ccc(-c2cccc(COc3ccc(Cn4oc(=O)[nH]c4=O)cc3)c2C)c(C)c1
2. O=c1[nH]c(=O)n(Cc2ccc(OCc3cccc(-c4cccnc4)c3)cc2)o1
3. O=c1[nH]c(=O)n(Cc2ccc(OCc3cccc(-c4c(Cl)cccc4Cl)c3)cc2)o1

[1.77, 2.81, 2.66]

====

tested on: MIN6 cell; assay: Insulin secretion-promoting action using MIN6 cell; design: species or system mouse; conditions: relative activity value at 1 μM of each compound, based on 100% control (DMSO), 2 hours incubation
measure: Insulin secretion-accelerating action (%)
Answers are plain numbers, in %.

Consider the molecule O=c1[n-]c(=O)n(Cc2ccc(OCc3cccc(Oc4ccccc4)c3)cc2)o1.[Na+] and give its measured Insulin secretion-accelerating action.
228

Item under review: COc1cc(F)c(-c2cccc(COc3ccc(Cn4oc(=O)[n-]c4=O)cc3)c2)c(F)c1.[Na+] . Reported Insulin secretion-accelerating action?
177

Parameter requested: Insulin secretion-accelerating action. Apply to each item below.
1. N#Cc1ccc(-c2cccc(COc3ccc(Cn4oc(=O)[nH]c4=O)cc3)c2)cc1
2. Cc1cccc(C)c1-c1cccc(COc2ccc(Cn3oc(=O)[n-]c3=O)cc2)c1.[Na+]

1: 169; 2: 192

Value lookup for Insulin secretion-accelerating action; key = CCOCCOc1cc(C)c(-c2cccc(COc3ccc(Cn4oc(=O)[n-]c4=O)cc3)c2)c(C)c1.[Na+]
287

====

target: human GPR40 (Homo sapiens, UniProt O14842, R211H); assay: Measurement of GPR40 agonist action (FLIPR, intracellular calcium); conditions: CHO cell strain expressing human GPR40; changes in fluorescence intensity after 1 minute of the measurement
measure: pEC50
Give bare numbers, as −log10 of the molar value.

The cases that follow already have their pEC50 on record.
Can you look up the measured pEC50 of Cc1cccc(C)c1-c1cncc(COc2ccc(Cn3oc(=O)[nH]c3=O)cc2)c1 for me?
6.03

Recorded pEC50 of COc1cccc(OC)c1-c1cccc(COc2ccc(Cn3oc(=O)[nH]c3=O)cc2)c1 , please.
6.12

Name the reported pEC50 value associated with the compound O=c1[nH]c(=O)n(Cc2ccc(OCc3cccc(-c4ccc(OCCO)cc4)c3)cc2)o1
7.51

Which pEC50 is reported for this compound? COc1cc(F)c(-c2cccc(COc3ccc(Cn4oc(=O)[n-]c4=O)cc3)c2)c(F)c1.[Na+]
6.46

Consider the additional compound presented here.
What value of pEC50 has been recorded for this entry: O=c1[nH]c(=O)n(Cc2ccc(OCc3cccc(Br)c3)cc2)o1
6.10

Recorded values, source patent US7968552B2.
